# target-or-test-system: Xanthine dehydrogenase/oxidase (Bos taurus)
# Sequence (P80457 whole entry): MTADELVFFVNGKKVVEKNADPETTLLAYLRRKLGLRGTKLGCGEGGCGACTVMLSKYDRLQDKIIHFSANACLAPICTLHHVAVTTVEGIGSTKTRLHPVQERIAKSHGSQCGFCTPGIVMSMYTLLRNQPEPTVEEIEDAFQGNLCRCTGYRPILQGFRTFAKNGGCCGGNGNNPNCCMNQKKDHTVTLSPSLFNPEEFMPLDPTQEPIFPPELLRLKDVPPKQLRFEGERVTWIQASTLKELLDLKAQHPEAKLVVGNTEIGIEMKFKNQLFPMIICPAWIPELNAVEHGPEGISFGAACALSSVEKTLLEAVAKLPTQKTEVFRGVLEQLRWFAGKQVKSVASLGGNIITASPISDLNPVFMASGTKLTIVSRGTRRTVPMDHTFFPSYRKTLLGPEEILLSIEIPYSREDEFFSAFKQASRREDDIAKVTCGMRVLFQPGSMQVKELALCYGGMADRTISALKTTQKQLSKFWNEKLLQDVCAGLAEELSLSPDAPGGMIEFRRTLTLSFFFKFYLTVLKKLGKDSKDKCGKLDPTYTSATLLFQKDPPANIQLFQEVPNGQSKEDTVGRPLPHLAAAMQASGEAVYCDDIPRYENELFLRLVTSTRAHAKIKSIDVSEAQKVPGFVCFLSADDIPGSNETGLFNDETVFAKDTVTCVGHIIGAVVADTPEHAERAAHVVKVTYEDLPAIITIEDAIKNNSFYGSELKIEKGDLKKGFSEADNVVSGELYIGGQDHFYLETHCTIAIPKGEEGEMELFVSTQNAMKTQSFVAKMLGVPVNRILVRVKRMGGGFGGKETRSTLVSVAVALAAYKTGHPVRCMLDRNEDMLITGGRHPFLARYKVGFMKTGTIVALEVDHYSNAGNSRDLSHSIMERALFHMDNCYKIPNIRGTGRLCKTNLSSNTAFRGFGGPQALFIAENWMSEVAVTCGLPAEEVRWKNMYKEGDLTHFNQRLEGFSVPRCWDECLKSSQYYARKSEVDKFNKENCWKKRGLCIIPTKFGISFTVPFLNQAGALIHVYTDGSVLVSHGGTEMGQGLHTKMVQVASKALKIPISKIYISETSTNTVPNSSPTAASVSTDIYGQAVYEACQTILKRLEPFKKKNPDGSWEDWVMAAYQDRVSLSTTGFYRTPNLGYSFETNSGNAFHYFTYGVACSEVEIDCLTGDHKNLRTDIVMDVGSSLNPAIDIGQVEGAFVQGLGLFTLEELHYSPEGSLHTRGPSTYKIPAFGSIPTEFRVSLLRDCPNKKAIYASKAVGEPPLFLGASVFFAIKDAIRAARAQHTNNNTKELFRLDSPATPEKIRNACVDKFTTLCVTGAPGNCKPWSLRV
# experiment-summary: Inhibition of cow milk xanthine oxidase at 50 ug/mL
# measurement-setup: cattle
readout: inhibition at 50 µg/mL

Find inhibition at 50 µg/mL (Xanthine dehydrogenase/oxidase (Bos taurus)) for the entry COc1cc(-c2oc3cc(O)cc(O)c3c(=O)c2O)ccc1O [ISORHAMNETIN]
49%

Find inhibition at 50 µg/mL (Xanthine dehydrogenase/oxidase (Bos taurus)) for the entry "COc1cc(-c2cc(=O)c3c(O)cc(O[C@H]4O[C@@H](C(=O)O)[C@H](O)[C@@H](O)[C@@H]4O)cc3o2)ccc1O"
0.3%

Find inhibition at 50 µg/mL (Xanthine dehydrogenase/oxidase (Bos taurus)) for the entry COc1c(O)cc2oc(-c3ccc(O)c(O)c3)cc(=O)c2c1O [EUPAFOLIN]
49%

====

# target-or-test-system: Xanthine dehydrogenase/oxidase (Bos taurus)
# experiment-summary: Inhibition of cow milk xanthine oxidase at 50 ug/mL
# measurement-setup: cattle
Outcome label depends on inhibition at 50 µg/mL relative to 20%: at/above gives true, below gives false.

Example entries and their recorded answers appear below.
molecule	class-label
COc1ccc(-c2cc(=O)c3c(O)cc(O)c(-c4cc(-c5cc(=O)c6c(O)cc(OC)cc6o5)ccc4OC)c3o2)cc1	false
O=C1C[C@@H](c2ccc(O)c(O)c2)Oc2cc(O)cc(O)c21	true
O=c1cc(-c2ccc(O)cc2)oc2c([C@@H]3O[C@H](CO)[C@@H](O)[C@H](O)[C@H]3O)c(O)cc(O)c12	false
COc1cc2oc(-c3ccc(O)cc3)cc(=O)c2c(O)c1[C@@H]1O[C@H](CO)[C@@H](O)[C@H](O)[C@H]1O	true
O=c1cc(-c2ccc(O)c(O)c2)oc2c([C@@H]3O[C@H](CO)[C@@H](O)[C@H](O)[C@H]3O)c(O)cc(O)c12	false

State whether the measured inhibition at 50 µg/mL reaches 20%, counting equality as reaching it, for O=C1c2c(O)cc(O)cc2O[C@H](c2ccc(O)c(O)c2)[C@H]1O [(+)-TAXIFOLIN]
false

State whether the measured inhibition at 50 µg/mL reaches 20%, counting equality as reaching it, for "COc1cc2oc(-c3ccc(O[C@@H]4O[C@H](CO)[C@@H](O)[C@H](O)[C@H]4O)cc3)cc(=O)c2c(O)c1OC"
false

State whether the measured inhibition at 50 µg/mL reaches 20%, counting equality as reaching it, for "O=C1C[C@@H](c2ccc(O[C@@H]3O[C@H](CO)[C@@H](O)[C@H](O)[C@H]3O)cc2)Oc2cc(O)ccc21"
false

State whether the measured inhibition at 50 µg/mL reaches 20%, counting equality as reaching it, for "COc1cc(-c2oc3cc(O)cc(O)c3c(=O)c2OS(=O)(=O)O)ccc1O"
true

State whether the measured inhibition at 50 µg/mL reaches 20%, counting equality as reaching it, for COc1c(-c2ccc(O)c(O)c2)oc2cc(O[C@@H]3O[C@H](CO)[C@@H](O)[C@H](O)[C@H]3O)cc(O)c2c1=O [TRANSILIN]
true

State whether the measured inhibition at 50 µg/mL reaches 20%, counting equality as reaching it, for "O=c1c(O)c(-c2ccc(O)c(O)c2)oc2cc(O[C@@H]3O[C@H](CO)[C@@H](O)[C@H](O)[C@H]3O)cc(O)c12"
false

State whether the measured inhibition at 50 µg/mL reaches 20%, counting equality as reaching it, for "COc1ccc(-c2cc(=O)c3c(O)c(OC)c(O[C@@H]4O[C@H](CO[C@@H]5O[C@@H](C)[C@H](O)[C@@H](O)[C@H]5O)[C@@H](O)[C@H](O)[C@H]4O)cc3o2)cc1"
false

State whether the measured inhibition at 50 µg/mL reaches 20%, counting equality as reaching it, for "O=c1cc(-c2ccccc2)oc2cc(O)c(O)c(O)c12"
true
